# measurement target: LILRB3 (human (not printed on the sheet), UniProt O75022)
# Sequence (O75022 24-443 limits assumed): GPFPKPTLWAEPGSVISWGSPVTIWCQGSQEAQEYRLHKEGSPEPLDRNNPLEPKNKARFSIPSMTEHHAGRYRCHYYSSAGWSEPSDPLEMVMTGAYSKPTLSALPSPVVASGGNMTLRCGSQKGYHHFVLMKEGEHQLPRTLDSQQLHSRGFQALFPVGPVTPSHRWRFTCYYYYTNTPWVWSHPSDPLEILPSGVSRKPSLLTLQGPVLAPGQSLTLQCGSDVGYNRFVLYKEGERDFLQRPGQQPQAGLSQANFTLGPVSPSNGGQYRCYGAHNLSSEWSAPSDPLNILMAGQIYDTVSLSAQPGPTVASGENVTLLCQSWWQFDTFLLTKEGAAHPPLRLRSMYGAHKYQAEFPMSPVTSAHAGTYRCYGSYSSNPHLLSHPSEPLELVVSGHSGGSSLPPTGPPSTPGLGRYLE
# method: LILR reporter cells on coated antibody, GFP positive (%)
endpoint: binding result

1. h193 antibody No. 20 (h193-H3 / h193-K2) (antibody, V domains shown) VH: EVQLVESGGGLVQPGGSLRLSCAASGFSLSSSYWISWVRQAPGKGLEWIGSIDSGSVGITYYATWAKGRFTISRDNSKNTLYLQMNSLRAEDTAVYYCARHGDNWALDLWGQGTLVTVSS VL: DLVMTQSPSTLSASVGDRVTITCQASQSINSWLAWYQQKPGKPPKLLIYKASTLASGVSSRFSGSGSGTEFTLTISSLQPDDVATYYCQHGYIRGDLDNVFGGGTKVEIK :: no binding
2. h193 antibody No. 19 (h193-H3 / h193-K1) (antibody, V domains shown) VH: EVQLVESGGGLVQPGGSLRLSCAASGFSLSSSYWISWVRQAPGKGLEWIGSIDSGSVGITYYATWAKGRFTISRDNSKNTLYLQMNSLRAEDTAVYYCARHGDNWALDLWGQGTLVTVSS VL: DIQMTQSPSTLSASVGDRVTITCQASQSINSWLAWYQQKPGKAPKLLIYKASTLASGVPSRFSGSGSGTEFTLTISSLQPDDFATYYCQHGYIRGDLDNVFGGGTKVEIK :: no binding
